# Target Of Assay: CDK2/CyclinE (Homo sapiens (Human), UniProt P24941)
# Experiment Summary: CDK2/CyclinE kinase assay (Nanosyn, Caliper microfluidic)
# Assay type: biochemical
# Measurement Context: Table 2; read-out: CDK2/CycE IC50
Measured Endpoint: pIC50
Quick note: pIC50 means taking -log10 of the concentration in moles per liter.

Solved entries:
(Q) Using the record for CN(C)C1CCN(c2ccc(Nc3ncc4cc5n(c4n3)C3(CCCCC3)CNC5=O)nn2)CC1 [SS] , report its pIC50.
(A) 5.84

(Q) What would you report for O=C1NCC2(CCCCC2)n2c1cc1cnc(Nc3ccc(N4CCC(N5CCC(C(F)(F)F)CC5)CC4)cn3)nc12 [X] ?
(A) 4.94

Next:
(Q) Using the record for CC(C)N1CCN(c2ccc(Nc3ncc4cc5n(c4n3)C3(CCCCC3)CNC5=O)nc2)C[C@@H]1C [AA] , report its pIC50.
(A) 5.21
